- System: K562
- Measurement Description: Cytotoxicity against human K562 cells assessed as cellular growth at 10 uM by SRB assay
- Format: functional
Outcome: met for Activity of at least 90%; not met for anything lower.

Examples with answers:
Cc1ccc(S(=O)(=O)NC2=NC(=O)/C(=C\c3ccccc3)S2)cc1 = met
CC1(C)CC(=O)c2cc3c(N)c(C(=O)NCc4ccccc4)sc3nc2C1 = met
COc1cc(/C=c2/sc3nc4ccccc4n3c2=O)cc(I)c1O = not met
N#Cc1ccc(-n2nnc3ccccc32)cc1C#N = met

Is reported Activity greater than or equal to 90% here: "COc1cccc(C(=O)Nc2nc3ccc(Cl)cc3s2)c1"
not met

---

Items are presented alongside their recorded Activity.
- System: SK-OV-3
- Measurement Description: Cytotoxicity against human SKOV3 cells assessed as cellular growth at 10 uM by SRB assay
- Format: functional
Give the value in % but do not write % after it.

# get_value(readout='Activity', item= "Clc1ccccc1Nc1nnc(-c2ccncc2)s1" )
104.92

Please do the same for "Nc1c(C(=O)Nc2ccc(Cl)c(Cl)c2)sc2nc(-c3cccs3)ccc12" as well.
105.1

Proceed to "Cc1ccc(C(=O)/C=C2/Nc3ccc(C)cc3OC2=O)cc1"
115.37

Next record, please: "Cc1ccc(NC(=O)c2sc3nc4c(cc3c2N)C(=O)CCC4)cc1Cl"
113.94

Can you check "COc1ccc2[nH]c(C(=O)NCc3ccccc3)cc2c1" next?
108.16

Field entry: "Cc1ccccc1NC(=O)c1sc2nc3c(cc2c1N)C(=O)CCC3"
22.08

Moving on to the next compound: "O=C(Nc1nc2ccccc2s1)c1ccc(F)cc1"
108.36

Do the same for "Cc1ccc(S(=O)(=O)Oc2ccc(-c3cnc4ccccc4n3)cc2)cc1" please
104.03

Entry "N#Cc1ccc(-n2nnc3ccccc32)cc1C#N" please
98.76

Now give it for "c1ccc(-c2nc(-c3cccs3)no2)cc1" too.
106.03

Another compound: "Cc1c(OCC(=O)c2ccccc2)ccc2c1oc(=O)c1ccccc12"
101.55

Now the compound "O=C1N=C(c2ccccc2)S/C1=C\c1ccc2c(c1)OCO2"
98.47

Quick one: "O=S(=O)(Oc1ccc(-c2cnc3ccccc3n2)cc1)c1ccccc1"
106.76

Ok, now "Nc1c(C(=O)NCc2ccccc2)sc2nc3c(cc12)C(=O)CCC3"
111.91

Follow-up entry: "O=C(NCCc1ccc(Cl)cc1)c1[nH]c2ccccc2c1Cl"
86.84

---

- System: U-251
- Measurement Description: Cytotoxicity against human U251 cells assessed as cellular growth at 10 uM by SRB assay
- Type: functional
Endpoint Name: Activity (%)
Hi! Could you send only the number? It should be in %, unit omitted.

Please review the entries below; each comes with its answer.
O=C(Nc1ccc(S(=O)(=O)Nc2nccs2)cc1)c1cccs1 = 101.85
Cc1cc(C)c(NC(=O)c2sc3nc4c(cc3c2N)C(=O)CC(C)(C)C4)c(C)c1 = 99.68
O=C(Nc1ccc2oc(=O)ccc2c1)c1ccc(-c2ccc(Br)cc2)o1 = 98.16
Nc1c(C(=O)NCc2ccccc2)sc2nc3c(cc12)C(=O)CCC3 = 99.51
O=c1/c(=C/c2ccccc2Cl)sc2nc(-c3ccccc3)nn12 = 89.87
Cc1ccc(NC(=O)c2sc3nc4c(cc3c2N)C(=O)CCC4)cc1Cl = 97.87
Clc1ccc(-c2nc(-c3cccs3)no2)c(Cl)c1 = 90.09
Cc1ccc(NC(=O)c2sc3nc(-c4cccs4)ccc3c2N)cc1C = 101.86
CC1(C)CC(=O)c2cc3c(N)c(C(=O)NCc4ccccc4)sc3nc2C1 = 99.82
Cc1cc(C)c(NC(=O)c2sc3nc4c(cc3c2N)C(=O)CCC4)c(C)c1 = 21.13

Value lookup for Activity; key = "COc1ccc(Cl)cc1C(=O)Nc1nc2ccc(Cl)cc2s1"
87.26

And "O=C(NCCc1ccccc1)c1cc2cccc([N+](=O)[O-])c2[nH]1" ?
97.58

Same question, "Cc1ccc(S(=O)(=O)NC2=NC(=O)/C(=C\c3ccccc3)S2)cc1" this time
98.58
